assay conditions: 308.15 K; 101 kPa; Liquid
reported property: mass density (kg/m3)

>>> df
                     compound  reported_property  units_label  observed_result
0                        OCCO       mass density        kg/m3           1100.6
1                     CCCCCCO       mass density        kg/m3            808.3
2                    CCCCCCCO       mass density        kg/m3            811.9
3  CCC(C)O (stereo not given)       mass density        kg/m3            793.8
4  CC(O)CO (stereo not given)       mass density        kg/m3           1025.4

====

assay conditions: 303.15 K; 101 kPa; Liquid
reported property: mass density (kg/m3)

In [3]: df
Out[3]:
                     molecule  reported_property  observed_result
0                     CCCCCCO       mass density            811.5
1                    CCCCCCCO       mass density            815.4
2                        OCCO       mass density           1104.2
3  CC(O)CO (stereo not given)       mass density           1029.9
4  CCC(C)O (stereo not given)       mass density            798.7

====

assay conditions: 298.15 K; 101 kPa; Liquid
reported property: viscosity (mPa·s)

Use the examples below as a reference point.
                     compound  reported_property  observed_result
0                    CCCCCCCO          viscosity            5.914
1  CC(O)CO (stereo not given)          viscosity            45.44
2  CCC(C)O (stereo not given)          viscosity            2.999

I: CCCCCCO
II: OCCO
Problem: Pick one: I or II . Which has the bigger viscosity number? Respond using the label that marks the chosen record.
Result: II

====

assay conditions: 298.15 K; 101 kPa; Liquid
reported property: mass density (kg/m3)

In [3]: df
Out[3]:
                                   compound  observed_result
0   CCC(C)O (stereo not given) [butan-2-ol]            802.4
1  CC(O)CO (stereo not given) [1,2-propanediol]           1033.1
2                     OCCO [1,2-ethanediol]           1109.2
3                    CCCCCCCO [heptan-1-ol]            818.9
4                      CCCCCCO [hexan-1-ol]            815.4

====

assay conditions: 308.15 K; 101 kPa; Liquid
reported property: viscosity (mPa·s)

   compound  reported_property  observed_result
0   CCCCCCO          viscosity            3.471

P: CCC(C)O (stereo not given)
Q: CC(O)CO (stereo not given)
R: CCCCCCCO
S: OCCO
Problem: Ascending sort, viscosity. Returns: the labels arranged in the requested order.
Result: P, R, S, Q
